# key: entry, value: TGI
Test system: HCC-2998 colon
Experiment: NCI tumour cell line growth inhibition, 48 h

CN(C)CCN1C(=O)c2cccc3cccc(c23)C1=O = > 25 µM
C=C(Cl)Cc1c(O)c2c(c(O)c1CC(=C)Cl)C(=O)c1ccccc1C2=O = > 100 µM
C/C=C/[C@H](O[Si](C)(C)C(C)(C)C)[C@@H](O)/C=C/C(=O)OCC = 34.8 µM
N#CC(C#N)=Cn1c(=S)[nH]c2ccccc21 = > 100 µM
Cc1cc2c(cc1Cl)SC(NNc1ccc([N+](=O)[O-])cc1)=NS2(=O)=O = > 10 µM
COC(=O)C1=CC2OC1(C)CCC2=O (stereo unspecified) = > 100 µM

Data request: Provide TGI value for the following compound: O=C1NC2(CCN(CCCC3(c4ccc(F)cc4)OCCO3)CC2)Oc2ccccc21
Data returned: > 100 µM

Data request: Provide TGI value for the following compound: CCN(CC)CCOc1ccc(C(=O)/C=C\c2ccc(Cl)cc2Cl)cc1
Data returned: 4.65 µM

Data request: Provide TGI value for the following compound: O=C(CC1C(=O)Nc2ccccc2S1=O)Nc1ccc(Cl)cc1 (stereo unspecified)
Data returned: > 100 µM

Data request: Provide TGI value for the following compound: COP(=O)(OC)/C(=C\c1cn(C(c2ccccc2)(c2ccccc2)c2ccccc2)cn1)NC(C)=O
Data returned: > 100 µM

Data request: Provide TGI value for the following compound: COc1ccc(N=[N+]([O-])c2ccc(OC)cc2)cc1
Data returned: > 100 µM
